Reference source for all entries: patent US20200024330A1

Measurement Target: HIV-1 Env of isolate TR0.11 (HIV-1)
Assay Info: cell-based or functional assay
For each entry below, report its IC50, pseudovirus neutralization (TZM-bl) value.
I only need the number, in µg/mL, no unit after it.

Ask: Find the recorded IC50, pseudovirus neutralization (TZM-bl) belonging to 1456_A12 (PG16) (TCN-117) (antibody, V domains shown) VH: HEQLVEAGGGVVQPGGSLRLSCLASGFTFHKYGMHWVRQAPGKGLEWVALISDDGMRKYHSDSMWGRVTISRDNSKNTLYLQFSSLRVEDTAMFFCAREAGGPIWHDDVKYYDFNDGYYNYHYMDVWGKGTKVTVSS VL: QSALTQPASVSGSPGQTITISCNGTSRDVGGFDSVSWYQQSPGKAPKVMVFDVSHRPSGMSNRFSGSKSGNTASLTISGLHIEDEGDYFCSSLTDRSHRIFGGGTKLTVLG and report it.
Result: 3.05

Ask: Also 1469_M23 (PG16) (TCN-118) (antibody, V domains shown) VH: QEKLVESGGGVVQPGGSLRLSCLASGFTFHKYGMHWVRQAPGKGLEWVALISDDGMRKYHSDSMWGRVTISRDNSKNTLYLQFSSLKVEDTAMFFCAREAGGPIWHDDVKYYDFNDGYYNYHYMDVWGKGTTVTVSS VL: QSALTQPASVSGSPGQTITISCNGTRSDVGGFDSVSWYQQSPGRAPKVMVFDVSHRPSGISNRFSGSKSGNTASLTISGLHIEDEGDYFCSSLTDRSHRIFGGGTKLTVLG , if possible.
Result: 7.52

Ask: Could you do the same for 1489_I13 (PG16) (TCN-120) (antibody, V domains shown) VH: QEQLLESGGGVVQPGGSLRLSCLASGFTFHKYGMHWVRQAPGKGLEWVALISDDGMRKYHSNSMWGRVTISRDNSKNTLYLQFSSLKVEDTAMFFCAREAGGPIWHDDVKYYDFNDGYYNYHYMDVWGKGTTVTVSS VL: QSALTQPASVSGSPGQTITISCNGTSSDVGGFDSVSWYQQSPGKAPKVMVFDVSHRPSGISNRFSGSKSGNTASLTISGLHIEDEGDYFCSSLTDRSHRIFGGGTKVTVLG , please?
Result: 10.9

Ask: Please do the same for 1503_H05 (PG16) (TCN-119) (antibody, V domains shown) VH: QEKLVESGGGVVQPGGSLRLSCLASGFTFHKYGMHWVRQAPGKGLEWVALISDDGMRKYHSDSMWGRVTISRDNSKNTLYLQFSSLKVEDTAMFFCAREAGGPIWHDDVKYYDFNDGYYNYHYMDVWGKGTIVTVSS VL: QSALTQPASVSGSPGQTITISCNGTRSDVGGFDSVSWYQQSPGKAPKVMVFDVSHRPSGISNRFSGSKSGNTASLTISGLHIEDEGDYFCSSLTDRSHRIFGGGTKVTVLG as well.
Result: 4.3
